run-description: modulators of CIT2-GFP expression in yeast, primary screen, S. cerevisiae, GFP fusion, multiplex flow cytometry (AID 1870);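 also: barcoded CIT2-GFP strain pooled with four other GFP strains with rapamycin as positive control; median GFP fluorescence per well over plate mean of DMSO wells so 100% = DMSO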
test-conditions: 3 h, at 10 µM, stronger effect = higher value
experimental-readout: percent response of DMSO control (%)
One number for each entry, in %.

>  <compound>
COCCOC(=O)c1c(C)oc2ccc(OCc3cc(C(=O)OC)oc3C)cc12

>  <percent response of DMSO control (%)>
93.9

$$$$
>  <compound>
COc1ccc(C2C3C(C)=NN=C3CC(C)(O)C2C(C)=O)cc1 (configuration not stated)

>  <percent response of DMSO control (%)>
97.7

$$$$
>  <compound>
COc1ccc(OC)c(-n2c(Cn3c(-c4ccccn4)nc4ccccc43)n[nH]c2=S)c1

>  <percent response of DMSO control (%)>
93

$$$$

State the recorded percent response of DMSO control for every item in the following list.
1. OC[C@H]1O[C@@H](n2cnc3c(Nc4ccccc4)ncnc32)[C@H](O)[C@@H]1O
2. CC1(C)c2ccccc2N2CC(=O)N(CC(N)=O)C21C (configuration not stated)
3. CC(COc1ccccc1)NC(C)C(O)c1ccc(O)cc1 (configuration not stated)
4. CC(=O)O[C@]1(C(C)=O)CC[C@H]2[C@@H]3C=C(Cl)C4=CC(=O)CC[C@]4(C)[C@H]3CC[C@@]21C
5. Cn1c(=O)[nH]c(=O)c2c1ncn2CCN1CCOCC1

## Output
112
103
111
102
96.6

State the recorded percent response of DMSO control for every item in the following list.
1. CCOc1ccc(C(=O)Nc2ccc(N3CCN(C(C)=O)CC3)cc2)cc1[N+](=O)[O-]
2. COC1(C)CC2C(CC1OC(=O)c1cc([N+](=O)[O-])cc([N+](=O)[O-])c1)C2(C)C (configuration not stated)
3. COC(=O)c1ccccc1OCCOCCOc1cccc2ccc(C)nc12
4. Cc1oc2ccc(OC(=O)c3cccs3)cc2c1C(=O)OC(C)C

## Output
115
106
99.8
92.5

State the recorded percent response of DMSO control for every item in the following list.
1. CCN(CC)Cc1c[nH]c2c(C(=O)OC)cccc12
2. COc1ccc(CCNC(=S)NC(=O)/C=C/c2ccc(C)cc2)cc1OC
3. CCCCC/C=C\C[C@H](O)/C=C/c1cccc(C[C@H](O)CCCCO)n1
4. CC(C)(C)NC[C@H](O)COc1nsnc1N1CCOCC1
5. Clc1ccccc1CN1CCc2sccc2C1

## Output
105
106
111
108
99.6
